# assayedTarget: S100A4 (Homo sapiens)
# Construct: made in house; host or cells: Escherichia coli BL21(DE3)
# Sequence (P26447 whole entry): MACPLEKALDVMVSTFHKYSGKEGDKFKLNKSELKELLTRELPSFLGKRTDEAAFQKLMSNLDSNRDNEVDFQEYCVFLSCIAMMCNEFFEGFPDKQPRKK
# method: Pull-down assay with immobilized protein and LSM libraries
# Assay type: binding
# conditionNotes: H12 library; 1:1 binding assumed; read-out: Surface mapping KD (apparent)
pKd: −log10 of the molar value.
Given measured pKd, output TRUE if it is greater than or equal to 4 and FALSE if not.

smilestext=CC[C@H](C)[C@@H](CC(=O)N[C@H]1CCC[C@@H]1C(=O)N[C@H]1CCC[C@@H]1C(N)=O)NC(=O)[C@H]1CCC[C@@H]1NC(=O)[C@H]1CCC[C@@H]1NC(=O)C[C@H](Cc1ccc(O)cc1)NC(=O)[C@H]1CCC[C@@H]1NC(=O)[C@H]1CCC[C@@H]1N assayedtarget="S100A4 (Homo sapiens)" grouplabel=FALSE
smilestext=N=C(N)NCCC[C@@H](CC(=O)N[C@H]1CCC[C@@H]1C(=O)N[C@H]1CCC[C@@H]1C(=O)N[C@H](CC(=O)N[C@H]1CCC[C@@H]1C(=O)N[C@H]1CCC[C@@H]1C(N)=O)Cc1ccc(O)cc1)NC(=O)[C@H]1CCC[C@@H]1NC(=O)[C@H]1CCC[C@@H]1N assayedtarget="S100A4 (Homo sapiens)" grouplabel=FALSE
smilestext=CC(C)C[C@@H](CC(=O)N[C@H]1CCC[C@@H]1C(=O)N[C@H]1CCC[C@@H]1C(=O)N[C@@H](CCCNC(=N)N)CC(=O)N[C@H]1CCC[C@@H]1C(=O)N[C@H]1CCC[C@@H]1C(N)=O)NC(=O)[C@H]1CCC[C@@H]1NC(=O)[C@H]1CCC[C@@H]1N assayedtarget="S100A4 (Homo sapiens)" grouplabel=FALSE
smilestext=CC(C)[C@@H](CC(=O)N[C@H]1CCC[C@@H]1C(=O)N[C@H]1CCC[C@@H]1C(=O)N[C@H](CC(=O)N[C@H]1CCC[C@@H]1C(=O)N[C@H]1CCC[C@@H]1C(N)=O)Cc1ccc(O)cc1)NC(=O)[C@H]1CCC[C@@H]1NC(=O)[C@H]1CCC[C@@H]1N assayedtarget="S100A4 (Homo sapiens)" grouplabel=FALSE
smilestext=NC(=O)[C@H]1CCC[C@@H]1NC(=O)[C@H]1CCC[C@@H]1NC(=O)C[C@H](Cc1c[nH]c2ccccc12)NC(=O)[C@H]1CCC[C@@H]1NC(=O)[C@H]1CCC[C@@H]1NC(=O)C[C@H](Cc1c[nH]c2ccccc12)NC(=O)[C@H]1CCC[C@@H]1NC(=O)[C@H]1CCC[C@@H]1N assayedtarget="S100A4 (Homo sapiens)" grouplabel=TRUE
smilestext=CC(C)C[C@@H](CC(=O)N[C@H]1CCC[C@@H]1C(=O)N[C@H]1CCC[C@@H]1C(=O)N[C@H](CC(=O)N[C@H]1CCC[C@@H]1C(=O)N[C@H]1CCC[C@@H]1C(N)=O)Cc1c[nH]c2ccccc12)NC(=O)[C@H]1CCC[C@@H]1NC(=O)[C@H]1CCC[C@@H]1N assayedtarget="S100A4 (Homo sapiens)" grouplabel=TRUE

###

The entries below are paired with their reported Kd.
# assayedTarget: S100A4 (Homo sapiens)
# Construct: made in house; host or cells: Escherichia coli BL21(DE3)
# method: Pull-down assay with immobilized protein and LSM libraries
# Type: binding
# conditionNotes: H14 library; 1:1 binding assumed; read-out: Surface mapping KD (apparent)
reportedProperty: Kd (µM)

smilestext=CSCC[C@@H](CC(=O)N[C@H]1CCCC[C@@H]1C(N)=O)NC(=O)[C@H]1CCCC[C@@H]1NC(=O)[C@H]1CCCC[C@@H]1NC(=O)C[C@H](Cc1ccccc1)NC(=O)[C@H]1CCCC[C@@H]1N assayedtarget="S100A4 (Homo sapiens)" units=µM recordedmeasurement=22
smilestext=C[C@@H](CC(=O)N[C@H]1CCCC[C@@H]1C(=O)N[C@H]1CCCC[C@@H]1C(=O)N[C@H](CC(=O)N[C@H]1CCCC[C@@H]1C(N)=O)Cc1ccccc1)NC(=O)[C@H]1CCCC[C@@H]1N assayedtarget="S100A4 (Homo sapiens)" units=µM recordedmeasurement=13
smilestext=CC[C@H](C)[C@@H](CC(=O)N[C@H]1CCCC[C@@H]1C(N)=O)NC(=O)[C@H]1CCCC[C@@H]1NC(=O)[C@H]1CCCC[C@@H]1NC(=O)C[C@H](CC(C)C)NC(=O)[C@H]1CCCC[C@@H]1N assayedtarget="S100A4 (Homo sapiens)" units=µM recordedmeasurement=2
smilestext=CC(C)C[C@@H](CC(=O)N[C@H]1CCCC[C@@H]1C(=O)N[C@H]1CCCC[C@@H]1C(=O)N[C@@H](CCC(=O)O)CC(=O)N[C@H]1CCCC[C@@H]1C(N)=O)NC(=O)[C@H]1CCCC[C@@H]1N assayedtarget="S100A4 (Homo sapiens)" units=µM recordedmeasurement=427
smilestext=NC(=O)CC[C@@H](CC(=O)N[C@H]1CCCC[C@@H]1C(=O)N[C@H]1CCCC[C@@H]1C(=O)N[C@H](CC(=O)N[C@H]1CCCC[C@@H]1C(N)=O)Cc1ccccc1)NC(=O)[C@H]1CCCC[C@@H]1N assayedtarget="S100A4 (Homo sapiens)" units=µM recordedmeasurement=443
smilestext=CC[C@H](C)[C@@H](CC(=O)N[C@H]1CCCC[C@@H]1C(=O)N[C@H]1CCCC[C@@H]1C(=O)N[C@@H](CCSC)CC(=O)N[C@H]1CCCC[C@@H]1C(N)=O)NC(=O)[C@H]1CCCC[C@@H]1N assayedtarget="S100A4 (Homo sapiens)" units=µM recordedmeasurement=3
smilestext=CC(C)C[C@@H](CC(=O)N[C@H]1CCCC[C@@H]1C(N)=O)NC(=O)[C@H]1CCCC[C@@H]1NC(=O)[C@H]1CCCC[C@@H]1NC(=O)C[C@@H](NC(=O)[C@H]1CCCC[C@@H]1N)[C@@H](C)O assayedtarget="S100A4 (Homo sapiens)" units=µM recordedmeasurement=7
smilestext=NC(=O)[C@H]1CCCC[C@@H]1NC(=O)C[C@H](CCC(=O)O)NC(=O)[C@H]1CCCC[C@@H]1NC(=O)[C@H]1CCCC[C@@H]1NC(=O)C[C@H](Cc1ccc(O)cc1)NC(=O)[C@H]1CCCC[C@@H]1N assayedtarget="S100A4 (Homo sapiens)" units=µM recordedmeasurement=371
smilestext=CC[C@H](C)[C@@H](CC(=O)N[C@H]1CCCC[C@@H]1C(N)=O)NC(=O)[C@H]1CCCC[C@@H]1NC(=O)[C@H]1CCCC[C@@H]1NC(=O)C[C@@H](NC(=O)[C@H]1CCCC[C@@H]1N)[C@@H](C)CC assayedtarget="S100A4 (Homo sapiens)" units=µM recordedmeasurement=2
smilestext=CSCC[C@@H](CC(=O)N[C@H]1CCCC[C@@H]1C(N)=O)NC(=O)[C@H]1CCCC[C@@H]1NC(=O)[C@H]1CCCC[C@@H]1NC(=O)C[C@H](CCSC)NC(=O)[C@H]1CCCC[C@@H]1N assayedtarget="S100A4 (Homo sapiens)" units=µM recordedmeasurement=14
smilestext=CC[C@H](C)[C@@H](CC(=O)N[C@H]1CCCC[C@@H]1C(N)=O)NC(=O)[C@H]1CCCC[C@@H]1NC(=O)[C@H]1CCCC[C@@H]1NC(=O)C[C@H](C)NC(=O)[C@H]1CCCC[C@@H]1N assayedtarget="S100A4 (Homo sapiens)" units=µM recordedmeasurement=7
smilestext=CC(C)C[C@@H](CC(=O)N[C@H]1CCCC[C@@H]1C(=O)N[C@H]1CCCC[C@@H]1C(=O)N[C@H](CC(=O)N[C@H]1CCCC[C@@H]1C(N)=O)[C@@H](C)O)NC(=O)[C@H]1CCCC[C@@H]1N assayedtarget="S100A4 (Homo sapiens)" units=µM recordedmeasurement=66
smilestext=N=C(N)NCCC[C@@H](CC(=O)N[C@H]1CCCC[C@@H]1C(=O)N[C@H]1CCCC[C@@H]1C(=O)N[C@H](CC(=O)N[C@H]1CCCC[C@@H]1C(N)=O)Cc1c[nH]c2ccccc12)NC(=O)[C@H]1CCCC[C@@H]1N assayedtarget="S100A4 (Homo sapiens)" units=µM recordedmeasurement=56
smilestext=C[C@@H](O)[C@@H](CC(=O)N[C@H]1CCCC[C@@H]1C(N)=O)NC(=O)[C@H]1CCCC[C@@H]1NC(=O)[C@H]1CCCC[C@@H]1NC(=O)C[C@H](Cc1c[nH]c2ccccc12)NC(=O)[C@H]1CCCC[C@@H]1N assayedtarget="S100A4 (Homo sapiens)" units=µM recordedmeasurement=157
smilestext=NC(=O)C[C@@H](CC(=O)N[C@H]1CCCC[C@@H]1C(N)=O)NC(=O)[C@H]1CCCC[C@@H]1NC(=O)[C@H]1CCCC[C@@H]1NC(=O)C[C@H](Cc1ccccc1)NC(=O)[C@H]1CCCC[C@@H]1N assayedtarget="S100A4 (Homo sapiens)" units=µM recordedmeasurement=337
smilestext=CC(C)C[C@@H](CC(=O)N[C@H]1CCCC[C@@H]1C(=O)N[C@H]1CCCC[C@@H]1C(=O)N[C@@H](CO)CC(=O)N[C@H]1CCCC[C@@H]1C(N)=O)NC(=O)[C@H]1CCCC[C@@H]1N assayedtarget="S100A4 (Homo sapiens)" units=µM recordedmeasurement=195
smilestext=NC(=O)C[C@@H](CC(=O)N[C@H]1CCCC[C@@H]1C(N)=O)NC(=O)[C@H]1CCCC[C@@H]1NC(=O)[C@H]1CCCC[C@@H]1NC(=O)C[C@H](Cc1c[nH]c2ccccc12)NC(=O)[C@H]1CCCC[C@@H]1N assayedtarget="S100A4 (Homo sapiens)" units=µM recordedmeasurement=224
smilestext=CSCC[C@@H](CC(=O)N[C@H]1CCCC[C@@H]1C(=O)N[C@H]1CCCC[C@@H]1C(=O)N[C@@H](CCC(N)=O)CC(=O)N[C@H]1CCCC[C@@H]1C(N)=O)NC(=O)[C@H]1CCCC[C@@H]1N assayedtarget="S100A4 (Homo sapiens)" units=µM recordedmeasurement=476

Where do these numbers come from? They come from paper PMC8162404.
